Where do the numbers come from? From ChEMBL document CHEMBL1629590.

# test-system: Major prion protein (Mus musculus, UniProt P04925)
# Sequence (P04925 whole entry): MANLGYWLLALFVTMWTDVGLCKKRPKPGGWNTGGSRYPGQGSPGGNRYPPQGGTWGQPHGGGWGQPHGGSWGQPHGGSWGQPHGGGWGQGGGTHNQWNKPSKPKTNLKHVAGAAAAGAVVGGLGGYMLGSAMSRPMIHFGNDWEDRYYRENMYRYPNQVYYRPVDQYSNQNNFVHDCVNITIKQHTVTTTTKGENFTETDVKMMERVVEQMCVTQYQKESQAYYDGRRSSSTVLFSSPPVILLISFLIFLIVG
# experiment-description: Binding affinity to mouse recombinant PrP (121-231) after 10 mins by surface plasmon resonance assay
# particulars: read-out: Kd
Friendly reminder: Kd below 50 µM is Met, at or above is Not met.

compound: CC1CCCCN1CC(=O)Nc1sc2c(c1C#N)CCCCC2 (stereo unspecified)
label-class: Met

compound: Cc1cccc2cc3c(N)c(C(=O)NC4CCCC4)sc3nc12
label-class: Not met

compound: CCCCNc1nc2ccccc2n1CC(=O)N1CCc2ccccc21
label-class: Met

====

# test-system: Major prion protein (Mus musculus)
# experiment-description: Binding affinity to mouse recombinant PrP (121-231) after 10 mins by surface plasmon resonance assay
# particulars: read-out: Kd
measurement-type: Kd

molecule: O=C(Cc1c[nH]c2ccccc12)NC1CCc2ccccc2C1 (stereo not drawn)
test-system: Major prion protein (Mus musculus)
measurement-type: Kd
result: 48.6 µM
//
molecule: Cc1cc2cc3c(cc2nc1SCCN1CCCCC1)OCCO3
test-system: Major prion protein (Mus musculus)
measurement-type: Kd
result: 50.8 µM
//
molecule: CCC(C)C(NC(=O)c1ccccc1)C(=O)N1CCc2ccccc21 (stereo not drawn)
test-system: Major prion protein (Mus musculus)
measurement-type: Kd
result: 51.2 µM
